Recorded values, source PubChem BioAssay (NCATS).

Target: Glutathione peroxidase 1 (Homo sapiens) (UniProt P07203)
Sequence (P07203 whole entry, looked up): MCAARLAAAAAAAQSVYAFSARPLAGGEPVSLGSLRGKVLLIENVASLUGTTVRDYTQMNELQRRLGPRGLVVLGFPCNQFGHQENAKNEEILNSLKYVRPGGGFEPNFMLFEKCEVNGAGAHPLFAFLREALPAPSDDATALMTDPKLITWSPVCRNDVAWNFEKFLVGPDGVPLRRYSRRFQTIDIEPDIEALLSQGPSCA
Test: Primary qHTS Assay for Inhibitors of Recombinant Selenoprotein Glutathione Peroxidase 1 (GPX1) (AID 1845191); note: nearly all actives have a fitted effect of over 65% in size
Conditions: recombinant GPX1, GR-coupled NADPH fluorescence, 15 min; series mostly up to 48.8 µM
Records with an inconclusive call do not appear. Calls of active or inactive are those of the source. Calls come from the whole dose curve; as a rule, active = well fitted inhibition curve with a large enough effect; inconclusive = small, poorly fitted or top-dose-only effect; inactive = flat fitted curve, though single readings scatter.

>  <compound>
CN(CCCCCCN(C)C(=O)Oc1ccc[n+](C)c1)C(=O)Oc1ccc[n+](C)c1

>  <outcome>
inactive

$$$$
>  <compound>
NC(N)=NCCC[C@@H](N)C(=O)N[C@@H](CCCN=C(N)N)C(=O)N1CCC[C@H]1C(=O)N1C[C@H](O)C[C@H]1C(=O)NCC(=O)N[C@@H](Cc1cccs1)C(=O)N[C@@H](CO)C(=O)N1Cc2ccccc2C[C@@H]1C(=O)N1[C@H](C(=O)N[C@@H](CCCN=C(N)N)C(=O)O)C[C@@H]2CCCC[C@@H]21

>  <outcome>
inactive

$$$$
>  <compound>
N#Cc1ccc(-c2csc(NN=C3CCCC3)n2)cc1

>  <outcome>
inactive

$$$$
>  <compound>
CCCCCCCCCCCCCCCC(=O)OCC=C(C)C=CC=C(C)C=CC1=C(C)CCCC1(C)C

>  <outcome>
inactive

$$$$
>  <compound>
Cn1c(=O)oc2ccc(C(=O)N[C@H](C3CCNCC3)C3CC(O)C3)cc21 (stereo partly drawn)

>  <outcome>
inactive

$$$$
>  <compound>
Nc1nc(-c2ccc(Cl)c(Cl)c2)c(-c2ccncc2)s1

>  <outcome>
inactive

$$$$
>  <compound>
CC(C)C(=O)SCCCCCCC(=O)Nc1nc(-c2ccccc2)cs1

>  <outcome>
inactive

$$$$
>  <compound>
CCCCC(C)(O)CC=C[C@H]1[C@H](O)CC(=O)[C@H]1CCCCCCC(=O)OC (stereo partly drawn)

>  <outcome>
inactive

$$$$

====

Target: Rap guanine nucleotide exchange factor 3 (Homo sapiens) (UniProt O95398)
Sequence (O95398 whole entry, looked up): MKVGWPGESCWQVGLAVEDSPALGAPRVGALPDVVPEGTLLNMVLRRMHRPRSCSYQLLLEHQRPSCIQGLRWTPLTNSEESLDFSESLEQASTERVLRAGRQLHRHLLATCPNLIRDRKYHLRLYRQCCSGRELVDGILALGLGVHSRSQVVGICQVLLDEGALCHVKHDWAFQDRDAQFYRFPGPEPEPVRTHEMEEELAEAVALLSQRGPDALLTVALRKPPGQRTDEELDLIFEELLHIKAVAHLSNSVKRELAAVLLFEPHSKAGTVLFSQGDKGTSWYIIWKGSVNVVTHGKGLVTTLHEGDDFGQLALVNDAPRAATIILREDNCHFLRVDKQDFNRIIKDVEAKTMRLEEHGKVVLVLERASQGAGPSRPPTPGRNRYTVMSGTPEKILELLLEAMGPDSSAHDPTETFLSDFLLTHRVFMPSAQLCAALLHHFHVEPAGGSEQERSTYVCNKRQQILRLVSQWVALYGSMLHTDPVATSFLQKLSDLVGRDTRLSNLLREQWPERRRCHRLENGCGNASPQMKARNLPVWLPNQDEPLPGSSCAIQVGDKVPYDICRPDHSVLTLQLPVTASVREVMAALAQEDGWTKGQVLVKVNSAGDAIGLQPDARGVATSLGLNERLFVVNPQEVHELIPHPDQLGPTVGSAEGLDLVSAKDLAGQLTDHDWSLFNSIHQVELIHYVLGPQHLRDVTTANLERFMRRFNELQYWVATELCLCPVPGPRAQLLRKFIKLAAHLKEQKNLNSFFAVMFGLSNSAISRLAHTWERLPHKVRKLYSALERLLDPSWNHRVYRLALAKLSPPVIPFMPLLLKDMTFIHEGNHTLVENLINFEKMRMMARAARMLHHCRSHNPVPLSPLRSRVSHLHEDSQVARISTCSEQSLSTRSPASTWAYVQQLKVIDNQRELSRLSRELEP
Test: Counterscreen qHTS for antagonist of cAMP-regulated guanine nucleotide exchange factor 3 (EPAC1) (AID 1645888);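 note: fluorescence loss as bound BODIPY-GDP is released from Rap1B; % of control where 0% means no effect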
Conditions: Rap1B-BODIPY-GDP nucleotide exchange, fluorescence; series mostly up to 154 µM
Records with an inconclusive call do not appear. Calls of active or inactive are those of the source. Calls follow the shape of the dose curve; as a rule, active = well fitted inhibition curve with a large enough effect; inconclusive = small, poorly fitted or top-dose-only effect; inactive = no such curve, though single readings can be large or run the other way.

>  <compound>
O=C1/C(=C/c2cccs2)COc2ccccc21

>  <activity change, negative = inhibition>
-3.32% [at 30.8 µM] (inactive)

$$$$
>  <compound>
Cn1c(=O)c2c(nc(NCCc3ccccc3)n2CC(=O)NCCc2ccccc2)n(C)c1=O

>  <activity change, negative = inhibition>
inactive

$$$$
>  <compound>
COc1ccccc1C1CC(=O)Oc2cc(C)c(Br)c(C)c21 (stereo unspecified)

>  <activity change, negative = inhibition>
inactive

$$$$
>  <compound>
O=C(Nc1ccc(-c2cn3ccccc3n2)cc1)c1cccs1

>  <activity change, negative = inhibition>
inactive

$$$$
>  <compound>
Cc1cccc2sc(N(Cc3cccnc3)C(=O)c3cccs3)nc12

>  <activity change, negative = inhibition>
inactive

$$$$
>  <compound>
COc1ccccc1Cc1c(-c2ccco2)nc2c(C)cc(Br)cn12

>  <activity change, negative = inhibition>
-14.6% [at 30.8 µM] (inactive)

$$$$

====

Biological target: Rap guanine nucleotide exchange factor 3 (Homo sapiens)
Experiment: Confirmatory qHTS for agonist of cAMP-regulated guanine nucleotide exchange factor 3 (EPAC1) (AID 1645881);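 note: EPAC1 catalysed release of BODIPY-GDP from Rap1B seen as fluorescence loss; 100% = effect of cAMP agonist control; nearly all actives have a fitted effect of over 75% in size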
Conditions: EPAC1 Rap1B BODIPY-GDP exchange fluorescence; series mostly up to 154 µM
Records with an inconclusive call do not appear. Active and inactive are the calls of the source. Calls follow the shape of the dose curve; as a rule, active = well fitted activation curve with a large enough effect; inconclusive = small, poorly fitted or top-dose-only effect; inactive = no such curve, though single readings can be large or run the other way.

>  <compound>
Cn1c(/N=C/c2c(O)ccc3ccccc23)nc2ccccc21

>  <test-target>
Rap guanine nucleotide exchange factor 3 (Homo sapiens)

>  <outcome>
inactive

$$$$
>  <compound>
Cn1cc([C@]2(O)C(=O)Nc3ccc(Br)cc32)c2ccccc21

>  <test-target>
Rap guanine nucleotide exchange factor 3 (Homo sapiens)

>  <outcome>
inactive

$$$$
>  <compound>
COc1ccccc1N1CCN(S(=O)(=O)c2ccc3c(c2)NC(=O)C(C)C(=O)N3)CC1 (stereo not given)

>  <test-target>
Rap guanine nucleotide exchange factor 3 (Homo sapiens)

>  <outcome>
inactive

$$$$
>  <compound>
O=c1[nH]n2c(=O)c3c([nH]c2c1N=Nc1cccc(Cl)c1)CCCC3

>  <test-target>
Rap guanine nucleotide exchange factor 3 (Homo sapiens)

>  <outcome>
inactive

$$$$
>  <compound>
Cc1ccc(O)c(CNc2ccc(S(=O)(=O)Nc3nccs3)cc2)c1

>  <test-target>
Rap guanine nucleotide exchange factor 3 (Homo sapiens)

>  <outcome>
inactive

$$$$

====

Molecular target: Luciferin 4-monooxygenase (Photinus pyralis)
Test: Biochemical firefly luciferase enzyme assay for NPC (AID 624030); note: nearly all actives have a fitted effect of over 70% in size
Settings: purified P. pyralis luciferase, luminescence, 5 min; series mostly up to 58.6 µM
Inconclusive results are not listed. Activity calls are given as the source filed them. The call rests on the fitted dose curve; in most records, active means well fitted inhibition curve with a large enough effect; inconclusive means small, poorly fitted or top-dose-only effect; inactive means flat fitted curve, though single readings scatter. Square brackets hold non-standard residues; d marks the D form. Peptide text beside a SMILES is read from it. pGlu = O=C1CC[C@@H](C(=O)O)N1
Labels: label 1 = active, label 0 = inactive

>  <compound>
CCNC(=O)[C@H]1CCCN1C(=O)[C@H](CCCN=C(N)N)NC(=O)[C@H](CC(C)C)NC(=O)[C@H](CC(C)C)NC(=O)[C@@H](Cc1ccc(O)cc1)NC(=O)[C@H](CO)NC(=O)[C@@H](Cc1c[nH]c2ccccc12)NC(=O)[C@H](Cc1cnc[nH]1)NC(=O)[C@@H]1CCC(=O)N1 ([pGlu]H[dW]S[dY]LLR[dP]-NHEt)

>  <answer-label>
label 0

$$$$
>  <compound>
O=NCc1ccc([N+](=O)[O-])o1

>  <answer-label>
label 0

$$$$
>  <compound>
CC(C)CC(NC(=O)CNC(=O)C(Cc1ccc(O)cc1)NC(=O)C(CO)NC(=O)C(Cc1c[nH]c2ccccc12)NC(=O)C(Cc1cnc[nH]1)NC(=O)C1CCC(=O)N1)C(=O)NC(CCCN=C(N)N)C(=O)N1CCCC1C(=O)NCC(N)=O (stereo not drawn)

>  <answer-label>
label 0

$$$$
>  <compound>
CCCCCCCCCCCCCCCC(=O)OCC(O)C1OC(=O)C(O)=C1O (stereo not drawn)

>  <answer-label>
label 0

$$$$
>  <compound>
C1OCOCO1

>  <answer-label>
label 0

$$$$
>  <compound>
C/C=C\c1ccc(OC)cc1

>  <answer-label>
label 0

$$$$
>  <compound>
CN(C)CCCCCCN(C)C

>  <answer-label>
label 0

$$$$
>  <compound>
CC(C)(CO)C(O)C(=O)NCCCC(=O)O (stereo not drawn)

>  <answer-label>
label 0

$$$$
>  <compound>
CCC(C)n1ncn(-c2ccc(N3CCN(c4ccc(OCC5COC(Cn6cncn6)(c6ccc(Cl)cc6Cl)O5)cc4)CC3)cc2)c1=O (stereo not drawn)

>  <answer-label>
label 0

$$$$
>  <compound>
CC(C)CN(C[C@@H](O)[C@H](Cc1ccccc1)NC(=O)O[C@H]1CCOC1)S(=O)(=O)c1ccc(N)cc1

>  <answer-label>
label 0

$$$$
>  <compound>
CC(=O)O[C@@]12CO[C@@H]1C[C@H](O)[C@@]1(C)C(=O)[C@H](O)C3=C(C)[C@@H](OC(=O)C(O)[C@@H](NC(=O)OC(C)(C)C)c4ccccc4)C[C@@](O)([C@@H](OC(=O)c4ccccc4)[C@H]21)C3(C)C (stereo partly drawn)

>  <answer-label>
label 0

$$$$
>  <compound>
CO/N=C(/C(=O)N[C@@H]1C(=O)N2C(C(=O)OC(C)OC(C)=O)=C(COC(N)=O)CS[C@H]12)c1ccco1 (stereo partly drawn)

>  <answer-label>
label 0

$$$$
>  <compound>
CCN1/C(=C/C=C/C=C/c2sc3ccccc3[n+]2CC)Sc2ccccc21

>  <answer-label>
label 1

$$$$
>  <compound>
Nc1nc(Cl)nc2c1ncn2C1CC(O)C(CO)O1 (stereo not drawn)

>  <answer-label>
label 0

$$$$
>  <compound>
CC/C=C(\C(=O)N[C@H]1C(=O)N2C(C(=O)OCOC(=O)C(C)(C)C)=C(COC(N)=O)CS[C@H]12)c1csc(N)n1

>  <answer-label>
label 0

$$$$
>  <compound>
NCCCC(N)C(=O)O (stereo not drawn)

>  <answer-label>
label 0

$$$$
>  <compound>
CC1CCC(C(C)C)C(OC(=O)c2ccccc2O)C1 (stereo not drawn)

>  <answer-label>
label 0

$$$$
>  <compound>
CN1CC[C@H](CN2c3ccccc3Sc3ccccc32)C1

>  <answer-label>
label 0

$$$$

====

Reported activity is given for each of the following compounds.
Biological target: Phenylethanolamine N-methyltransferase (Homo sapiens) (UniProt P11086)
Sequence (P11086 whole entry, looked up): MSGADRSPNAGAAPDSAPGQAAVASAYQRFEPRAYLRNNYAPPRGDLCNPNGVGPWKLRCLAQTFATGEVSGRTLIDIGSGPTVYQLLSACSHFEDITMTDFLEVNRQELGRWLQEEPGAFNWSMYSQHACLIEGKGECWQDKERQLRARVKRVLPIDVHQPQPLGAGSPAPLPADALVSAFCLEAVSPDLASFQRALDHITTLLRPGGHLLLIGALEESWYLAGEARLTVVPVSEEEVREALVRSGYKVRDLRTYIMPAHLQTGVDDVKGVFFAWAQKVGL
Test: Confirmatory Screen for Target Class Profiling of Small Molecule Inhibitors of Methyltransferases (AID 1745852)
Conditions: MTase-Glo luminescence, SAH detection, recombinant enzyme; measured here: PNMT max response; stronger effect = lower value
measurement-label: activity

>  <compound>
CC(C)CCNC(=O)c1ccc2c(=O)[nH]c3c(C(=O)NC(C)C)sc(=S)n3c2c1

>  <result>
-33.6%

$$$$
>  <compound>
COc1cccc2c1OCCCN(c1cc(C3CC(O)C3)nc(N)n1)C2 (stereo unspecified)

>  <result>
4.23%

$$$$
>  <compound>
CCOc1cc(CNc2ccc(C(=O)O)cc2)ccc1OCc1ccccc1

>  <result>
-2.65%

$$$$
>  <compound>
O=C(O)c1ccc(Nc2nc3ccccc3n3cnnc23)cc1

>  <result>
-46%

$$$$
>  <compound>
CCCn1c(=O)c2ccccc2n2c(=O)n(CC(=O)c3cccc(Cl)c3)nc12

>  <result>
-9.61%

$$$$
>  <compound>
CN(CCCNC(=O)Cn1ccc2cc(S(=O)(=O)N3CCCCC3)ccc21)C1CCCCC1

>  <result>
0.276%

$$$$
>  <compound>
O=C(CCc1nnc2n(CCc3ccccc3)c(=O)c3ccccc3n12)N1CCN(c2ccccc2)CC1

>  <result>
0.144%

$$$$
>  <compound>
O=C(c1ccc2c(=O)nc3c(-c4ccc(Cl)cc4)n[nH]n3c2c1)N1CCN(Cc2ccccc2)CC1

>  <result>
-11.1%

$$$$
>  <compound>
CC(=O)Nc1cccc(-c2cc3c(cn2)CN(Cc2ccccc2)CCN3)c1

>  <result>
-14.8%

$$$$
>  <compound>
CCCn1c(C)cnc1CC1CCN(C(=O)NCc2ccc(OC)cc2)C1 (stereo unspecified)

>  <result>
-1.44%

$$$$
>  <compound>
CN(CCc1nc2ccc(Cl)cc2[nH]1)c1cc(C2CC(O)C2)nc(N)n1 (stereo unspecified)

>  <result>
3.63%

$$$$
>  <compound>
COc1cccc(CN2C(=O)c3nc4ccccc4n3CC2(C)C(=O)NC2CCC(C)CC2)c1 (stereo unspecified)

>  <result>
-8.56%

$$$$
>  <compound>
O=C(CCc1nnc2n(CCc3ccccc3)c(=O)c3ccccc3n12)NCCCN1CCCCC1

>  <result>
0.873%

$$$$
>  <compound>
COc1ccccc1N1CCN(S(=O)(=O)c2cccc3c2C(=O)c2ccccc2C3=O)CC1

>  <result>
-8.85%

$$$$
>  <compound>
O=C(NCCc1ccccc1)c1ccc2c(=O)[nH]c3c(C(=O)NCC4CCCO4)sc(=S)n3c2c1 (stereo unspecified)

>  <result>
-66.7%

$$$$
>  <compound>
COc1cccc(-c2ccccc2NC(=O)C2CCN(CC=C(C)C)CC2)c1

>  <result>
-3%

$$$$
>  <compound>
CC(C)OCCCn1c(=O)c2ccccc2n2c(CCC(=O)N3CCN(c4cccc(Cl)c4)CC3)nnc12

>  <result>
-4.41%

$$$$
>  <compound>
CC1(C(=O)NC2CCCCCC2)Cn2c(cc3occc32)C(=O)N1Cc1ccc2c(c1)OCO2 (stereo unspecified)

>  <result>
-10.8%

$$$$
>  <compound>
O=C(Nc1ccccc1)c1cnc2c(c1)N(C(=O)Cc1ccc(O)cc1)CCC2

>  <result>
-3.63%

$$$$
>  <compound>
Oc1ccc(NCCN2CCCC2)cc1

>  <result>
-7.62%

$$$$
>  <compound>
CC(C)Cn1c(=O)c2ccccc2n2c(CCC(=O)Nc3ccc(F)c(F)c3)nnc12

>  <result>
-5.35%

$$$$
>  <compound>
CC1CCN(CCCNC(=O)CCc2nnc3n(Cc4ccc(F)cc4)c(=O)c4ccccc4n23)CC1

>  <result>
-5.49%

$$$$
>  <compound>
COc1ccccc1CNC(=O)C1(C)Cn2c(cc3ccccc32)C(=O)N1Cc1ccc(OC)c(OC)c1 (stereo unspecified)

>  <result>
-1.32%

$$$$
>  <compound>
CCC1Oc2ccc(NS(=O)(=O)c3ccc(Cl)cc3)cc2CN(Cc2ccc(F)cc2)C1=O (stereo unspecified)

>  <result>
-6.42%

$$$$
>  <compound>
Cn1cc2c3c(cccc31)CN(C(=O)c1ccccc1F)CC2

>  <result>
-0.857%

$$$$
>  <compound>
CCCNc1cc(N2CCC(CCC(=O)NCCN3CCCCCC3)CC2)ncn1

>  <result>
0.426%

$$$$
>  <compound>
CCCC1c2cccn2CCN1C(=O)Nc1ccc(Br)c(C)c1 (stereo unspecified)

>  <result>
-6.57%

$$$$
>  <compound>
CCn1cc(CN2CCN(C(=O)c3cccs3)CC2)ccc1=O

>  <result>
-6.54%

$$$$
>  <compound>
N#Cc1cnc(N2CC3CCC(C2)N3CC(F)(F)F)s1

>  <result>
-0.128%

$$$$
>  <compound>
CC(C)Cn1c(=O)c2ccccc2n2c(CCC(=O)NCCc3ccc(Cl)cc3)nnc12

>  <result>
-6.54%

$$$$
>  <compound>
COc1ccnc(-c2nnc3ccc(Nc4cc(OC)c(OC)c(OC)c4)nn23)c1

>  <result>
-25.6%

$$$$
>  <compound>
COc1ccc(-c2cc3c(cn2)CN(CCc2ccccc2)CCN3)cc1OC

>  <result>
-48.8%

$$$$
>  <compound>
Cc1cc(F)ccc1NS(=O)(=O)c1ccc2[nH]c3c(c2c1)CCCC3

>  <result>
0%

$$$$
>  <compound>
O=C(Nc1ccc(F)c(Cl)c1)N1CCn2cccc2C1Cc1ccccc1 (stereo unspecified)

>  <result>
-6.59%

$$$$
>  <compound>
CCCN1CCn2c3c(c4cc(OC)ccc42)CCN=C31

>  <result>
-5.52%

$$$$
>  <compound>
CC1CC(C)CN(S(=O)(=O)c2ccc3c(c2)oc(=O)n3CC(=O)Nc2ccc(Cl)cc2)C1 (stereo unspecified)

>  <result>
-61.6%

$$$$
>  <compound>
CCCc1cc2c(-c3ccccc3)cc(=O)oc2cc1OCc1ccc(C(=O)O)o1

>  <result>
-42%

$$$$
>  <compound>
CCc1cccc(NC(=O)Cn2c(=O)oc3cc(S(=O)(=O)N4CC(C)CC(C)C4)ccc32)c1 (stereo unspecified)

>  <result>
-59.2%

$$$$
>  <compound>
O=C(CCC[C@@H]1[C@H]2CCCN3CCC[C@@H](CN1Cc1ccccc1)[C@@H]23)Nc1cccnc1

>  <result>
-2.62%

$$$$
>  <compound>
CN1CCC(N2CC[C@H](c3nc4ccccc4[nH]3)C2)CC1

>  <result>
-6.23%

$$$$
>  <compound>
O=C(Nc1ccc2c(N3CCOCC3)ncnc2c1)c1cccc(Cl)c1

>  <result>
-22.8%

$$$$
